tested on: Staphylococcus aureus; test: Antibacterial activity against Staphylococcus aureus ATCC 25923 by two-fold serial dilution method; type: functional
Readout label: log10 of MIC (log10 of the value in µg/mL)
Values reflect log10 of reported MIC (µg/mL).

Asked: What measured log10 of MIC goes with BrC1[C@@H](c2c[nH]c3ccccc23)c2[nH]c3ccccc3c2[C@@H]1c1c[nH]c2ccccc12 (relative stereo) ?
Given back: 0.49

Asked: What measured log10 of MIC goes with CC1(C)S[C@@H]2[C@H](NC(=O)[C@H](N)c3ccccc3)C(=O)N2[C@H]1C(=O)O [AMPICILLIN] ?
Given back: 0.19

Asked: What measured log10 of MIC goes with CC(=O)n1cc([C@H]2CC[C@@H](c3cn(C(C)=O)c4ccccc34)c3c2c2ccccc2n3C(C)=O)c2ccccc21 (relative stereo) ?
Given back: 1.70

Asked: What measured log10 of MIC goes with Clc1ccc2c([C@@H]3CC[C@@H](c4c[nH]c5cc(Cl)ccc45)c4c3[nH]c3cc(Cl)ccc43)c[nH]c2c1 (relative stereo) ?
Given back: 1.10

Asked: What measured log10 of MIC goes with CC(=O)n1cc([C@H]2CCC[C@@H](c3c[nH]c4ccccc34)c3[nH]c4ccccc4c32)c2ccccc21 (relative stereo) ?
Given back: 1.40

Asked: What measured log10 of MIC goes with Clc1ccc2[nH]cc([C@@H]3CCC[C@@H](c4c[nH]c5ccc(Cl)cc45)c4c3[nH]c3ccc(Cl)cc43)c2c1 (relative stereo) ?
Given back: 0.49

Asked: What measured log10 of MIC goes with Clc1ccc2[nH]cc([C@@H]3CC[C@@H](c4c[nH]c5ccc(Cl)cc45)c4c3[nH]c3ccc(Cl)cc43)c2c1 (relative stereo) ?
Given back: 0.49

Asked: What measured log10 of MIC goes with CC(=O)n1cc([C@H]2CCC[C@@H](c3cn(C(=O)O)c4ccccc34)c3[nH]c4ccccc4c32)c2ccccc21 (relative stereo) ?
Given back: 2.00

Asked: What measured log10 of MIC goes with c1ccc2c([C@@H]3C[C@@H](c4c[nH]c5ccccc45)c4c3[nH]c3ccccc43)c[nH]c2c1 (relative stereo) ?
Given back: 1.70

Asked: What measured log10 of MIC goes with ClC1[C@@H](c2c[nH]c3ccccc23)c2[nH]c3ccccc3c2[C@@H]1c1c[nH]c2ccccc12 (relative stereo) ?
Given back: 0.49

Asked: What measured log10 of MIC goes with c1ccc2c([C@@H]3CC[C@@H](c4c[nH]c5ccccc45)c4c3[nH]c3ccccc43)c[nH]c2c1 (relative stereo) ?
Given back: 0.49

Asked: What measured log10 of MIC goes with `CC1(C)S[C@@H]2[C@H](NC(=O)[C@@H](N)c3ccccc3)C(=O)N2[C@H]1C(=O)OCOC(=O)[C@@H]1N2C(=O)C[C@H]2S(=O)(=O)C1(C)C` ?
Given back: -0.11

----------
tested on: Staphylococcus aureus; assay: Antibacterial activity against Staphylococcus aureus ATCC 25923 by two-fold serial dilution method; assay type: functional
Readout label: MIC (mg/L)
Give the value in mg/L but do not write mg/L after it.

Asked: What measured MIC goes with c1ccc2c([C@@H]3CCCC[C@@H](c4c[nH]c5ccccc45)c4c3[nH]c3ccccc43)c[nH]c2c1 (relative stereo) ?
Given back: 3.12

Asked: What measured MIC goes with CC(=O)n1cc([C@@H]2CC[C@H](c3cn(C(C)=O)c4ccccc34)c3c2[nH]c2ccccc32)c2ccccc21 (relative stereo) ?
Given back: 100

Asked: What measured MIC goes with Clc1ccc2c([C@@H]3CCC[C@@H](c4c[nH]c5cc(Cl)ccc45)c4c3[nH]c3cc(Cl)ccc43)c[nH]c2c1 (relative stereo) ?
Given back: 3.12

Asked: What measured MIC goes with c1ccc2c([C@@H]3CCC[C@@H](c4c[nH]c5ccccc45)c4c3[nH]c3ccccc43)c[nH]c2c1 (relative stereo) ?
Given back: 3.12
